All values here come from patent US9745295B2.

Measured pIC50, listed per entry for reference.
target: recombinant human GST-SYK (Homo sapiens); assay: Homogeneous Time-Resolved Fluorescence (HTRF) assay for the recombinant human Syk enzyme; details: recombinant human GST-SYK 5 pM, ATP 25 μM, read-out: rhSYK IC50
# pIC50 = -log10(concentration in molar units)

{"MOLECULE": "Cc1cc(Nc2cc(C(F)(F)F)ncn2)nc(-c2cnc(C3(O)CCCc4cc(C(=O)O)ccc43)s2)c1 (single isomer, unassigned) [Example 2.7]", "pIC50": 9.29}
{"MOLECULE": "COC(=O)C1CCC(O)(c2ncc(-c3nc(C)cc(Nc4cc(C(F)(F)F)ccn4)n3)s2)CC1(C)C (stereo not drawn) [Example 1.10]", "pIC50": 8.05}
{"MOLECULE": "Cc1cc(Nc2cc(C(F)(F)F)ncn2)nc(-c2cnc(C3(O)CCC(C(=O)O)C(C)(C)C3)s2)c1 (single isomer, unassigned) [Example 1.7]", "pIC50": 8.58}

Task: Consider the molecule Cc1cc(Nc2cccnn2)nc(-c2cnc(C3(O)CCCc4cc(C(=O)O)ccc43)s2)c1 (single isomer, unassigned) [Example 2.8] and give its measured pIC50.
Result: 7.33

Task: Consider the molecule Cc1cc(Nc2nccc(C(F)(F)F)n2)cc(-c2cnc(C3(O)CCC(C(=O)O)C(C)(C)C3)s2)n1 (single isomer, unassigned) [Example 1.9] and give its measured pIC50.
Result: 8.68

Task: Consider the molecule COc1cc(Nc2nccc(C)n2)cc(-c2cnc(C(C)(O)[C@H]3CC[C@H](C(=O)O)CC3)s2)n1 (single isomer, unassigned) [Example 4.22] and give its measured pIC50.
Result: 8.15

---

target: recombinant human GST-SYK (Homo sapiens, UniProt P43405); assay: Homogeneous Time-Resolved Fluorescence (HTRF) assay for the recombinant human Syk enzyme; settings: recombinant human GST-SYK 5 pM, ATP 25 μM, read-out: rhSYK IC50
PARAMETER_MEASURED: pIC50
# pIC50 = -log10(concentration in molar units)

{"COMPOUND": "Cc1cc(Nc2nccc(C)n2)cc(-c2cnc(C3(O)CCC(C(=O)O)C(C)(C)C3)s2)n1 (single isomer, unassigned) [Example 4.16]", "QUANTITATIVE_READOUT": 8.16}
{"COMPOUND": "COc1cc(Nc2cc(C)cc(-c3cnc(C4(O)CCC(C(=O)O)C(C)(C)C4)s3)n2)ncn1 (single isomer, unassigned) [Example 3.4]", "QUANTITATIVE_READOUT": 8.63}
{"COMPOUND": "COc1cc(Nc2nccc(C(F)(F)F)n2)cc(-c2cnc(C(C)(O)[C@H]3CC[C@H](C(=O)O)CC3)s2)n1 (single isomer, unassigned) [Example 4.21]", "QUANTITATIVE_READOUT": 8.67}
{"COMPOUND": "CC1(C)CC(O)(c2ncc(-c3nccc(Nc4cc(C(F)(F)F)ccn4)n3)s2)CCC1C(=O)O (single isomer, unassigned) [Example 1.13]", "QUANTITATIVE_READOUT": 9.25}
{"COMPOUND": "CCCCOC(=O)[C@H]1CC[C@H](C(C)(O)c2ncc(-c3cc(Nc4nccc(C)n4)cc(C)n3)s2)CC1 (single isomer, unassigned) [Example 4.10]", "QUANTITATIVE_READOUT": 7.03}

# evaluate next
Task: Consider the compound Cc1cc(Nc2nccc(C(F)(F)F)n2)cc(-c2cnc(C3(O)CCC3)s2)n1 [Example 2.1] and give its measured pIC50.
Result: 7.58

---

Measured IC50, listed per entry for reference.
target: recombinant human GST-SYK (Homo sapiens, UniProt P43405); assay: Homogeneous Time-Resolved Fluorescence (HTRF) assay for the recombinant human Syk enzyme; conditions: recombinant human GST-SYK 5 pM, ATP 25 μM, read-out: rhSYK IC50
Note: unit nM is implicit; provide only the numeric part.

{"COMPOUND": "Cc1cc(Nc2nccc(C)n2)cc(-c2cnc(C(C)(O)[C@H]3CC[C@H](C(=O)O)CC3)s2)n1 (single isomer, unassigned)", "UNIT_SYMBOL": "nM", "QUANTITATIVE_READOUT": 1.31}

Task: Find IC50 (recombinant human GST-SYK (Homo sapiens, UniProt P43405)) for the entry Cc1cc(Nc2cc(C)ncn2)nc(-c2cnc(C3(O)CCCc4cc(C(=O)O)ccc43)s2)c1 (single isomer, unassigned)
Result: 0.212

Task: Find IC50 (recombinant human GST-SYK (Homo sapiens, UniProt P43405)) for the entry Cc1ccnc(Nc2ccc(-c3cnc(C4(O)CCC(C(=O)O)CC4)s3)cc2C)c1 (stereo not shown)
Result: 43.6

Task: Find IC50 (recombinant human GST-SYK (Homo sapiens, UniProt P43405)) for the entry OC1(c2ncc(-c3cncc(Nc4nccc(C(F)(F)F)n4)c3)s2)CCC1
Result: 189

Task: Find IC50 (recombinant human GST-SYK (Homo sapiens, UniProt P43405)) for the entry CCCCOC(=O)[C@H]1CC[C@H](C(C)(O)c2ncc(-c3cc(Nc4nccc(C(F)(F)F)n4)cc(C)n3)s2)CC1 (single isomer, unassigned)
Result: 375

Task: Find IC50 (recombinant human GST-SYK (Homo sapiens, UniProt P43405)) for the entry CC(O)(c1ncc(-c2cncc(Nc3cc(C(F)(F)F)ccn3)n2)s1)[C@H]1CC[C@H](C(=O)O)CC1 (single isomer, unassigned)
Result: 1.82

Task: Find IC50 (recombinant human GST-SYK (Homo sapiens, UniProt P43405)) for the entry COC(=O)C1CCC(O)(c2ncc(-c3cc(Nc4nccc(OC(C)C)n4)cc(C)n3)s2)CC1(C)C (stereo not shown)
Result: 10.4

---

target: recombinant human GST-SYK (Homo sapiens, UniProt P43405); test: Homogeneous Time-Resolved Fluorescence (HTRF) assay for the recombinant human Syk enzyme; conditions: recombinant human GST-SYK 5 pM, ATP 25 μM, read-out: rhSYK IC50
Lab note: cut-off is 50 nM. Strictly less in IC50 is class 1. Exactly 50 nM or more is class 0.

Please review the entries below; each comes with its answer.
{"COMPOUND": "COc1cc(Nc2nccc(C(F)(F)F)n2)cc(-c2cnc(C3(O)CCC(C(=O)O)C(C)(C)C3)s2)n1 (single isomer, unassigned)", "ANSWER_LABEL": "class 1"}
{"COMPOUND": "COc1ncc(Nc2nccc(C(F)(F)F)n2)cc1-c1cnc([C@@]2(O)CC[C@H](C(=O)O)C(C)(C)C2)s1 (single isomer, unassigned)", "ANSWER_LABEL": "class 1"}
{"COMPOUND": "Cc1cc(Nc2cc(C)ccn2)cc(-c2cnc(C(C)(O)C3CCC(C(=O)O)CC3)s2)c1 (single isomer, unassigned)", "ANSWER_LABEL": "class 1"}
{"COMPOUND": "Cc1cc(Nc2cc(C(F)(F)F)ncn2)nc(-c2cnc([C@@]3(O)CC[C@H](C(=O)O)[C@H](C)C3)s2)c1 (single isomer, unassigned) [Example 1.4]", "ANSWER_LABEL": "class 1"}
{"COMPOUND": "Cc1cc(Nc2ncnc(C)n2)cc(-c2cnc([C@@]3(O)CC[C@H](C(=O)O)C(C)(C)C3)s2)c1", "ANSWER_LABEL": "class 0"}

Could you now look at the following compound, please?
Task: Does Cc1cc(Nc2cncc(C(F)(F)F)n2)cc(-c2cnc(C3(O)CCC(C(=O)O)C(C)(C)C3)s2)c1 (single isomer, unassigned) have IC50 strictly under 50 nM?
Result: class 0

---

target: recombinant human GST-SYK (Homo sapiens); test: Homogeneous Time-Resolved Fluorescence (HTRF) assay for the recombinant human Syk enzyme; conditions: recombinant human GST-SYK 5 pM, ATP 25 μM, read-out: rhSYK IC50
PARAMETER_MEASURED: pIC50
# pIC50 = -log10(concentration in molar units)

{"MOLECULE": "Cc1cc(Nc2nccc(C(F)(F)F)n2)cc(-c2cnc(C(C)(O)c3ccc(C(=O)O)cc3)s2)n1 (single isomer, unassigned) [Example 1.20]", "pIC50": 9.54}
{"MOLECULE": "CCCCOC(=O)[C@H]1CC[C@H](C(C)(O)c2ncc(-c3cc(Nc4nccc(OC)n4)cc(C)n3)s2)CC1 (single isomer, unassigned) [Example 4.7]", "pIC50": 7.13}
{"MOLECULE": "Cc1cc(Nc2cc(C(F)(F)F)ccn2)nc(-c2cnc(C3(O)CCC3)s2)n1 [Example 4.5]", "pIC50": 8.36}
{"MOLECULE": "Cc1cc(Nc2cc(C(F)(F)F)ccn2)nc(-c2cnc(C3(O)CCC(C(=O)O)C(C)(C)C3)s2)n1 (single isomer, unassigned) [Example 1.12]", "pIC50": 9.16}
{"MOLECULE": "Cc1cc(Nc2ncc(F)c(C)n2)cc(-c2cnc(C(C)(O)[C@H]3CC[C@H](C(=O)O)CC3)s2)n1 (single isomer, unassigned) [Example 4.20]", "pIC50": 8.36}

Task: Consider the molecule CC1(C)CC(O)(c2ncc(-c3cccc(Nc4cc(C(F)(F)F)ncn4)n3)s2)CCC1C(=O)O (single isomer, unassigned) [Example 3.7] and give its measured pIC50.
Result: 8.34

Task: Consider the molecule CC1(C)CC(O)(c2ncc(-c3cccc(Nc4cc(C(F)(F)F)ncn4)n3)s2)CCC1C(=O)O (single isomer, unassigned) [Example 3.6] and give its measured pIC50.
Result: 9.29

Task: Consider the molecule COC(=O)C1CCC(O)(c2ncc(-c3cc(Nc4nccc(C(F)(F)F)n4)cc(C)n3)s2)CC1(C)C (stereo not drawn) [Example 1.8] and give its measured pIC50.
Result: 8.08

Task: Consider the molecule Cc1cnnc(Nc2cc(C)cc(-c3cnc([C@@]4(O)CC[C@H](C(=O)O)C(C)(C)C4)s3)n2)c1 (single isomer, unassigned) [Example 3.3] and give its measured pIC50.
Result: 6.74
